Attribution: PubChem BioAssay AID748

Please go through the items and note down their displacement.
test_target: Bcl-2-like protein 10 (Homo sapiens) (UniProt Q9HD36)
test: displacers of TR3 peptide from Bcl-B, primary screen, selectivity assay for Bfl-1 inhibitor project, biochemical, fluorescence polarization, FITC-TR3 peptide (AID 748);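 further: plate controls were wells without compound for no effect and wells lacking Bcl-B protein for full effect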
experimental_parameters: FP displacement of FITC-TR3 peptide from Bcl-B; at 20 µM; hits give high values
The campaign covered roughly 96,000 compounds. About 100 (0.1%) were called active. The sample as a whole holds a higher share of actives than the screen did. Measured potencies and affinities stand elsewhere.
# number only, unit % dropped from output

Specify displacement for "Cc1ccc(-c2nc3s/c(=C\c4ccco4)c(=O)n3n2)cc1" and stop.
-14.4

Specify displacement for "CN(C)S(=O)(=O)N(CC(=O)Nc1ccc(F)c(F)c1)c1ccccc1" and stop.
18

Specify displacement for "Cc1nnc2n(Cc3ccccc3)c(=O)c3c4c(sc3n12)COC(C)(C)C4" and stop.
4.4

Specify displacement for "O=C(N1CCOCC1)N1CCN(c2nc(-c3ccccc3)cs2)CC1" and stop.
-0.8

Specify displacement for "Cc1ccccc1C(=O)/C=C1/c2ccccc2CC(C)(C)N1C" and stop.
4.3

Specify displacement for "CCCn1c(C)cc(-c2csc(N)n2)c1C" and stop.
10.4

Specify displacement for "c1ccc2cc(CN3CCOCC3)ccc2c1" and stop.
-1.4

Specify displacement for O=C(CN1C(=O)C2CCCCC2C1=O)Nc1nc(-c2ccccn2)cs1 (stereo not drawn) and stop.
-3.3

Specify displacement for "CC(=O)c1ccc(N2CCN(c3ncc(C(F)(F)F)cc3Cl)CC2)cc1" and stop.
-8.1

Specify displacement for "CN(C)S(=O)(=O)N(CC(=O)NCc1ccccc1)c1ccccc1" and stop.
7.3

Specify displacement for "C=CCN1C(=O)CS/C1=N/c1nccs1" and stop.
1.8

Specify displacement for COc1ccc(CNCC(O)(c2ccccc2)c2ccc(Cl)cc2)cc1 (stereo not drawn) and stop.
-0.9

Specify displacement for COc1ccc(C2Nc3ccccc3C(=O)N2c2ccc(C)cc2)cc1Cn1nc(C)c([N+](=O)[O-])c1C (stereo not drawn) and stop.
8.3

Specify displacement for "O=C(Nc1ccc(N2CCOCC2)cc1)Nc1ccc(Cl)c(Cl)c1" and stop.
-11.1

Specify displacement for "C=CCN1C(=O)/C(=C2/Sc3ccccc3N2C)SC1=Nc1ccccc1C" and stop.
-13

Specify displacement for "CN(C)S(=O)(=O)N(Cc1ccc(Br)cc1)c1ccccc1" and stop.
0

Specify displacement for "COCCn1c(SCC(=O)Nc2ccc(Cl)cn2)nc2ccccc21" and stop.
-17

Specify displacement for "COc1ccc(-c2noc(CSc3nnc(Cc4ccccc4)n3-c3cccc(C)c3)n2)cc1OC" and stop.
-7.5

Specify displacement for Cc1ccc(C(C(=O)NCc2ccco2)N(C(=O)Cn2nnc3ccccc32)c2ccccc2)o1 (stereo not drawn) and stop.
2.5

Specify displacement for "Cc1c(C(=O)Nc2cccc3cccnc23)oc2ccccc12" and stop.
10.7

Specify displacement for "CCOC(=O)C1CCN(Cc2nc3ccccc3c(=O)n2-c2ccc(F)cc2)CC1" and stop.
-6.2

Specify displacement for CCOC(=O)c1[nH]c2cc3c(cc2c1NC(=O)CN1CCCCC1C)OCO3 (stereo not drawn) and stop.
9.5

Specify displacement for "CCCOc1ccc(Cc2nn3c(=O)/c(=C/c4ccco4)sc3nc2=O)cc1" and stop.
-5.7
